- Measured on: human prostate specific membrane antigen (PSMA), full-length, on cells (human, UniProt Q04609 1-750)
- Sequence (Q04609 whole entry): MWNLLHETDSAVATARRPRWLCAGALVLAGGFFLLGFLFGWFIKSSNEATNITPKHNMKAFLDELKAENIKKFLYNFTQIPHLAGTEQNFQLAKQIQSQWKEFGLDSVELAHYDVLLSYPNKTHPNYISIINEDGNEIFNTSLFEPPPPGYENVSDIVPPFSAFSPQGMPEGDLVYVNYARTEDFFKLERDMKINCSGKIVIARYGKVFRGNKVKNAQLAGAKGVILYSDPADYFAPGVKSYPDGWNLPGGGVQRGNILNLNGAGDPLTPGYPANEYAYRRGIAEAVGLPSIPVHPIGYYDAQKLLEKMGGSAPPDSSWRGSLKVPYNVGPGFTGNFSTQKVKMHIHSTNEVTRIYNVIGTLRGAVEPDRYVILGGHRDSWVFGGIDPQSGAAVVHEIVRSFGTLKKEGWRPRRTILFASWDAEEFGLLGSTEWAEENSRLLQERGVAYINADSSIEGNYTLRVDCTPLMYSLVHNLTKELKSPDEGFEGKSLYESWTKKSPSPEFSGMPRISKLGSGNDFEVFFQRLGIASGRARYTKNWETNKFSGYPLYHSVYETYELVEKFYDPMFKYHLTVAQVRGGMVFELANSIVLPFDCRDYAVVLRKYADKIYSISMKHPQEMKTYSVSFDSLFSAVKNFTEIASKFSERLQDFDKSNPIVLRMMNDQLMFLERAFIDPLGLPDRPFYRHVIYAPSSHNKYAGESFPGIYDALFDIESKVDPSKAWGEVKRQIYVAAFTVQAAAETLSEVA
- Experiment: cell-based or functional assay
Here the recorded His-ZAP cell killing, human PSMA Average EC50 is given for each entry.
Hi! Could you send only the number? It should be in pM, unit omitted.

INSERT INTO assay_data (binder, unit_abbreviation, observed) VALUES
  ('single VH domain antibody 2.13 (VHH, Human single VH domain antibody (Humabody); C-terminal His tag, residues not tied) VHH: EVQLVESGGGVVQPGRSLRLSCAASGFSFSGYGLHWVRQAPGKGLEWVAYISYDASNKYYADNVKGRFTISRDNSKNTLYLQMNSLRAEDTAVYYCAKDPAWGLRLGESSSYDFDIWGQGTMVTVSS', 'pM', 27);

Requested read-out: His-ZAP cell killing, human PSMA Average EC50. Entry: 1.11-6GS-2.17 (bispecific antibody, linker (G4S)6) EVQLLESGGGLVQPGGSLRLSCAASGFSFSSYALSWVRQAPGKGLEWVSSIGENNDTTDYADNVKGRFTISRDNSKNTLYLQMNSLRVEDTAVYYCVKDGVHWGQGTLVTVSSGGGGSGGGGSGGGGSGGGGSGGGGSGGGGSEVQLVESGGGVVQPGRSLRLSCAASGFSFSGYGMHWVRQAPGKGLEWVAYISYDASNKYYADNVKGRFTISRDNSKNTLYLQMNSLRAEDTAVYYCAKDPAWGLRLGESSSYDFDIWGQGTMVTVSS
7.9

Requested read-out: His-ZAP cell killing, human PSMA Average EC50. Entry: 1.16-6GS-2.17 (bispecific antibody, linker (G4S)6) EVQLLESGGGLVQPGGSLRLSCAASGFSFSSYALSWVRQAPGKGLEWVSSIGENNHTTDYADTVKGRFTISRDNSKNTLYLQMNSLRVEDTAVYYCVKDGVHWGQGTLVTVSSGGGGSGGGGSGGGGSGGGGSGGGGSGGGGSEVQLVESGGGVVQPGRSLRLSCAASGFSFSGYGMHWVRQAPGKGLEWVAYISYDASNKYYADNVKGRFTISRDNSKNTLYLQMNSLRAEDTAVYYCAKDPAWGLRLGESSSYDFDIWGQGTMVTVSS
15
